Tested on: CP247
protocol_summary: qHTS profiling for inhibitors of Plasmodium falciparum proliferation (AID 504749);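 further: 0% = DMSO vehicle and full inhibition = artemisinin control; nearly all actives have a fitted effect of over 60% in size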
assay_setup: P. falciparum in erythrocytes, SYBR Green DNA, 72 h; series mostly up to 28.7 µM
Results filed as inconclusive are left out. Calls of active or inactive are those of the source. The call rests on the fitted dose curve; in most records, active means well fitted inhibition curve with a large enough effect; inconclusive means small, poorly fitted or top-dose-only effect; inactive means flat fitted curve, though single readings scatter.
Select the correct class. Options are label 1 for active, label 0 for inactive and nothing else.

Q) Could you please tell me the result logged for C#CC1(O)CCC2C3CCC4=CC(=O)CCC4(C)C3CCC21C (stereo not given) in this assay?
A) label 0

---

protocol_summary: Quantitative High-Throughput drug screen in 47 multiple myeloma cell lines against the NCATS MIPE library collection: ARD_JJKsccE7 cell viability assay (AID 1918929;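 on viability: 100% = DMSO-only wells and 0% = media-only wells without cells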)
assay_setup: ARD myeloma cell line viability, CellTiter-Glo, 48 h; series mostly up to 45.8 µM
Text: PI: Beverly A. Mock Ph.D. Laboratory of Cancer Biology and Genetics, Center for Cancer Research, National Cancer Institute, National Institute of Health, Bethesda, Maryland […] 5; Detector; 425V; Luminescence; Viewlux PerkinElmer. […] 1. […] Briefly, the corresponding myeloma cell lines were screened in 1,536-well plates with 500 cells, 5-uL per well for inhibition of cell viability (assessed by measuring ATP levels with CellTiterGlo). […]
Results filed as inconclusive are left out. Activity calls are given as the source filed them. Calls follow the shape of the dose curve; as a rule, active = well fitted cell-killing curve with a large enough effect; inconclusive = small, poorly fitted or top-dose-only effect, or effect the other way; inactive = no such curve, though single readings can be large or run the other way.
Select the correct class. Options are T = active, F = inactive and nothing else.

// known answers, use as guide
CC[C@@H](C(N)=O)N1CCCC1=O; F
CCCCCC[C@H]1C(=O)O[C@H](C)[C@H](NC(=O)c2cccc(NC=O)c2O)C(=O)O[C@@H](C)[C@@H]1OC(=O)CC(C)C; T
CCN1CCN(C(=O)Cc2ccc(Nc3ncc(F)c(Nc4ccc(C(=O)Nc5ccccc5Cl)cc4)n3)cc2)CC1; T

Q) Could you please tell me the result logged for O=C(N[C@@H](COc1ccc2[nH]c(=O)[nH]c2c1)c1ccccc1)c1cccn(Cc2ccc(F)c(F)c2)c1=O in this assay?
A) T

Q) Could you please tell me the result logged for CSCC[C@@H](NC(=O)[C@@H](Cc1ccccc1)NC(=O)CNC(=O)CNC(=O)[C@@H](N)Cc1ccc(O)cc1)C(=O)O in this assay?
A) F

Q) Could you please tell me the result logged for N#C[C@H](O[C@@H]1O[C@H](CO[C@@H]2O[C@H](CO)[C@H](O)[C@H](O)[C@H]2O)[C@H](O)[C@H](O)[C@H]1O)c1ccccc1 in this assay?
A) T

Q) Could you please tell me the result logged for CCc1c(C(=O)C(N)=O)c2c(OCC(=O)O)cccc2n1Cc1ccccc1 in this assay?
A) F

Q) Could you please tell me the result logged for CC(C)[C@]12O[C@@H]1[C@@H]1O[C@]13[C@]1(O[C@H]1C[C@@H]1C4=C(CC[C@@]13C)C(=O)OC4)[C@H]2O in this assay?
A) F

Reference source for all entries: PubChem BioAssay (NCATS)
